# MEASUREMENT DESCRIPTION: qHTS RealTime-Glo MT Cell Viability Assay in HEK293 cells - 40 hour (AID 1224874); also: % is scaled to controls: 0 for no effect and ±100 for the full control effect; nearly all actives have a fitted effect of over 50% in size
# CONDITION CONTEXT: RealTime-Glo luminescence; stronger effect = lower value
Records with an inconclusive call do not appear. Activity calls are given as the source filed them. Calls follow the shape of the dose curve; as a rule, active = well fitted cell-killing curve with a large enough effect in the repeat runs; inconclusive = weak or mixed curves, or effect the other way; inactive = flat fitted curve, though single readings scatter.
MEASURED PARAMETER: max response

Worked cases, answers included:
# ENTRY SMILES, max response
data = [
    ("CCC(C)[O-].CCC(C)[O-].CCOC(=O)/C=C(/C)[O-].[Al+3]", "0.788% (inactive)"),
    ("Cc1cccc2cccnc12", "0.538% (inactive)"),
]

## Input Would you mind telling me what max response value was observed for Cc1ccc(N/N=c2\c(=O)cc/c(=N\Nc3ccc(S(=O)(=O)O)cc3)c2=O)c(C)c1 ?
## Output 1.45% (inactive)

## Input // returns reported max response for input O=C(/C=C/c1ccc(O)c(O)c1)O[C@@H](C(=O)O)[C@@H](OC(=O)/C=C/c1ccc(O)c(O)c1)C(=O)O
## Output 1.33% (inactive)

## Input Quick one: max response of O=C(Oc1ccccc1)Oc1ccccc1 ?
## Output -21% (inactive)

## Input Any idea what max response was measured for CC1=CCC(=C(C)C)CC1 ?
## Output -2.74% (inactive)

## Input Look at this molecule and give its reported max response. Cc1nc(-c2ccc(Cl)cc2)oc1COC(C)(C)C(=O)O
## Output 0.172% (inactive)

## Input Entry COC(=O)c1ccccc1OC : reported max response = ?
## Output 2.19% (inactive)

## Input Any idea what its max response is? The molecule is CC(C)(C)NSc1nc2ccccc2s1
## Output 8.62% (inactive)

## Input Could you share which max response value was measured for C#Cc1ccc(-c2ccccc2F)cc1 ?
## Output 5.33% (inactive)

## Input For the molecule shown here, Nc1nc2c(ncn2COCCO)c(=O)[nH]1 , give the reported max response.
## Output 0.456% (inactive)

## Input Return reported max response; argument: O=C1C(c2[nH]c3ccc(S(=O)(=O)O)cc3c2O)=Nc2ccc(S(=O)(=O)O)cc21
## Output 10.2% (inactive)

## Input Bench note: what max response did c1ccc(SSc2ccccc2)cc1 show?
## Output -15.4% (inactive)

All figures here come from PubChem BioAssay (Tox21).
